FYI, the data here is from the supplement of paper PMC9112550.

- Tested on: Escherichia coli TOP10
- protocol-details: shrunken log2 fold change of peptide-encoding DNA abundance (4.5 h post-induction vs induction); higher = less antimicrobial activity (less host growth inhibition)
- applied-conditions: time post-induction: 4.5 h; library: site-saturation at positions 5, 18, 19, 20
recorded-metric: shrunken log2 fold change
// response body must contain only the number

Example cases with answers are listed next.
RRIRKRPPRLPRPRPRPHFIPRP : 0.136
RRIRVRPPRLPRPRPRPHWPPRP : -0.122
RRIRWRPPRLPRPRPRPMLTPRP : 0.391
RRIRQRPPRLPRPRPRPYPAPRP : -0.289
RRIRERPPRLPRPRPRPCFMPRP : -0.231
RRIRCRPPRLPRPRPRPCCSPRP : -0.321
RRIRVRPPRLPRPRPRPYHHPRP : -0.0938
RRIRRRPPRLPRPRPRPTTSPRP : 0.591

Entry `RRIRQRPPRLPRPRPRPSSHPRP` — recorded shrunken log2 fold change = 0.0105

Entry `RRIRQRPPRLPRPRPRPGDRPRP` — recorded shrunken log2 fold change = 0.132

Entry `RRIRLRPPRLPRPRPRPCCQPRP` — recorded shrunken log2 fold change = -0.194

Entry `RRIRHRPPRLPRPRPRPPMKPRP` — recorded shrunken log2 fold change = -0.278

Entry `RRIRYRPPRLPRPRPRPYKSPRP` — recorded shrunken log2 fold change = 0.0233

Entry `RRIRMRPPRLPRPRPRPMYWPRP` — recorded shrunken log2 fold change = -0.169

Entry `RRIRYRPPRLPRPRPRPVKNPRP` — recorded shrunken log2 fold change = -0.381

Entry `RRIRCRPPRLPRPRPRPYHTPRP` — recorded shrunken log2 fold change = -0.887

Entry `RRIRQRPPRLPRPRPRPQAMPRP` — recorded shrunken log2 fold change = 0.015

Entry `RRIRNRPPRLPRPRPRPYSRPRP` — recorded shrunken log2 fold change = -0.00947

Entry `RRIRRRPPRLPRPRPRPHWDPRP` — recorded shrunken log2 fold change = -0.0203

Entry `RRIRNRPPRLPRPRPRPPGEPRP` — recorded shrunken log2 fold change = 0.0757

Entry `RRIRNRPPRLPRPRPRPEMDPRP` — recorded shrunken log2 fold change = 0.294

Entry `RRIRGRPPRLPRPRPRPIYDPRP` — recorded shrunken log2 fold change = -0.259

Entry `RRIRGRPPRLPRPRPRPNILPRP` — recorded shrunken log2 fold change = 0.199

Entry `RRIRARPPRLPRPRPRPCNHPRP` — recorded shrunken log2 fold change = -0.177

Entry `RRIRARPPRLPRPRPRPALEPRP` — recorded shrunken log2 fold change = 1.19

* * *

# key: entry, value: shrunken log2 fold change
- Tested on: Escherichia coli TOP10
- protocol-details: shrunken log2 fold change of peptide-encoding DNA abundance (4.5 h post-induction vs induction); higher = less antimicrobial activity (less host growth inhibition)
- applied-conditions: time post-induction: 4.5 h; library: site-saturation at positions 5, 18, 19, 20
// response body must contain only the number

Example cases with answers are listed next.
RRIRNRPPRLPRPRPRPLCPPRP : -0.141
RRIRIRPPRLPRPRPRPDSNPRP : -0.168
RRIRERPPRLPRPRPRPIKPPRP : -0.363
RRIRIRPPRLPRPRPRPMNWPRP : -0.135
RRIRHRPPRLPRPRPRPGHHPRP : -0.132

Now take the following sequence into account.
Entry `RRIRNRPPRLPRPRPRPNQNPRP` — recorded shrunken log2 fold change = 0.337

* * *

- Test system: Escherichia coli TOP10
- protocol-details: shrunken log2 fold change of peptide-encoding DNA abundance (4.5 h post-induction vs induction); higher = less antimicrobial activity (less host growth inhibition)
- applied-conditions: time post-induction: 4.5 h; library: site-saturation at positions 5, 18, 19, 20
Mark 0 (no) for shrunken log2 fold change values under 0.1, and 1 (yes) for everything at or above.

RRIRKRPPRLPRPRPRPAQMPRP : 1 (yes)

Ask | Reported shrunken log2 fold change reaches at least 0.1 for `RRIRVRPPRLPRPRPRPIIAPRP` ?
Reply | 0 (no)

Ask | Reported shrunken log2 fold change reaches at least 0.1 for `RRIRKRPPRLPRPRPRPNKNPRP` ?
Reply | 1 (yes)

Ask | Reported shrunken log2 fold change reaches at least 0.1 for `RRIRDRPPRLPRPRPRPWDPPRP` ?
Reply | 0 (no)

Ask | Reported shrunken log2 fold change reaches at least 0.1 for `RRIRQRPPRLPRPRPRPWQHPRP` ?
Reply | 0 (no)

Ask | Reported shrunken log2 fold change reaches at least 0.1 for `RRIRMRPPRLPRPRPRPIIQPRP` ?
Reply | 0 (no)

Ask | Reported shrunken log2 fold change reaches at least 0.1 for `RRIRARPPRLPRPRPRPLFNPRP` ?
Reply | 0 (no)

Ask | Reported shrunken log2 fold change reaches at least 0.1 for `RRIRKRPPRLPRPRPRPIAMPRP` ?
Reply | 1 (yes)

* * *

- System: Escherichia coli TOP10
- protocol-details: shrunken log2 fold change of peptide-encoding DNA abundance (4.5 h post-induction vs induction); higher = less antimicrobial activity (less host growth inhibition)
- applied-conditions: time post-induction: 4.5 h; library: site-saturation at positions 5, 18, 19, 20
# label = bin(measured shrunken log2 fold change), where bins are low = under -0.08, mid = from -0.08 up to 0.2, high = 0.2 and over

Solved entries:
RRIRYRPPRLPRPRPRPGEIPRP : mid
RRIRTRPPRLPRPRPRPTDEPRP : high
RRIRRRPPRLPRPRPRPWQMPRP : mid
RRIRPRPPRLPRPRPRPESKPRP : high
RRIRKRPPRLPRPRPRPGCNPRP : high

Ask | Each sequence maps to one class by shrunken log2 fold change. Which class for `RRIRMRPPRLPRPRPRPMHFPRP` ?
Reply | mid

Ask | Each sequence maps to one class by shrunken log2 fold change. Which class for `RRIRRRPPRLPRPRPRPRNSPRP` ?
Reply | low

Ask | Each sequence maps to one class by shrunken log2 fold change. Which class for `RRIRFRPPRLPRPRPRPQSNPRP` ?
Reply | low

* * *

- Test system: Escherichia coli TOP10
- protocol-details: shrunken log2 fold change of peptide-encoding DNA abundance (4.5 h post-induction vs induction); higher = less antimicrobial activity (less host growth inhibition)
- applied-conditions: time post-induction: 4.5 h; library: site-saturation at positions 5, 18, 19, 20
recorded-metric: shrunken log2 fold change

RRIRGRPPRLPRPRPRPNCLPRP : 0.191
RRIRTRPPRLPRPRPRPKQYPRP : -0.379
RRIRIRPPRLPRPRPRPTPHPRP : 0.788
RRIRQRPPRLPRPRPRPFACPRP : -0.111
RRIRLRPPRLPRPRPRPWLWPRP : -0.106

Entry `RRIRTRPPRLPRPRPRPILVPRP` — recorded shrunken log2 fold change = -0.0468

Entry `RRIRVRPPRLPRPRPRPYKVPRP` — recorded shrunken log2 fold change = -0.0222

Entry `RRIRPRPPRLPRPRPRPVIKPRP` — recorded shrunken log2 fold change = -0.215

* * *

- Tested on: Escherichia coli TOP10
- protocol-details: shrunken log2 fold change of peptide-encoding DNA abundance (4.5 h post-induction vs induction); higher = less antimicrobial activity (less host growth inhibition)
- applied-conditions: time post-induction: 4.5 h; library: site-saturation at positions 5, 18, 19, 20
Mark n for shrunken log2 fold change values under 0.2, and y for everything at or above.

Solved entries:
RRIRQRPPRLPRPRPRPHHLPRP : n
RRIRWRPPRLPRPRPRPSKEPRP : n

Turning now to a further record.
Ask | Reported shrunken log2 fold change reaches at least 0.2 for `RRIRPRPPRLPRPRPRPHVAPRP` ?
Reply | y

* * *

- System: Escherichia coli TOP10
- protocol-details: shrunken log2 fold change of peptide-encoding DNA abundance (4.5 h post-induction vs induction); higher = less antimicrobial activity (less host growth inhibition)
- applied-conditions: time post-induction: 4.5 h; library: site-saturation at positions 5, 18, 19, 20
# label = bin(measured shrunken log2 fold change), where bins are low class: < -0.1; middle class: ≥ -0.1 and < 0.2; high class: ≥ 0.2

Solved entries:
RRIRCRPPRLPRPRPRPVAKPRP : high class
RRIRIRPPRLPRPRPRPSAMPRP : low class
RRIRARPPRLPRPRPRPICIPRP : high class
RRIRIRPPRLPRPRPRPWIEPRP : low class

Ask | Each sequence maps to one class by shrunken log2 fold change. Which class for `RRIRIRPPRLPRPRPRPMYWPRP` ?
Reply | low class

Ask | Each sequence maps to one class by shrunken log2 fold change. Which class for `RRIRRRPPRLPRPRPRPGIFPRP` ?
Reply | low class

* * *

- Test system: Escherichia coli TOP10;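 note: peptides expressed intracellularly from a pBAD plasmid library in pooled LB shake-flask culture, induced with 0.3% L-arabinose, DNA abundance read by NGS, three biological replicates, DESeq2 with apeglm shrinkage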
- protocol-details: shrunken log2 fold change of peptide-encoding DNA abundance (4.5 h post-induction vs induction); higher = less antimicrobial activity (less host growth inhibition)
- applied-conditions: time post-induction: 4.5 h; library: site-saturation at positions 5, 18, 19, 20
# label = bin(measured shrunken log2 fold change), where bins are lower band (below -0.2), central band (-0.2 to below 0.03), upper band (0.03 or more)

Solved entries:
RRIRFRPPRLPRPRPRPQDMPRP : central band
RRIRDRPPRLPRPRPRPEIPPRP : central band
RRIRIRPPRLPRPRPRPQTCPRP : central band
RRIRPRPPRLPRPRPRPNTHPRP : central band
RRIRFRPPRLPRPRPRPCKMPRP : upper band

Ask | Each sequence maps to one class by shrunken log2 fold change. Which class for `RRIRQRPPRLPRPRPRPHYIPRP` ?
Reply | lower band

Ask | Each sequence maps to one class by shrunken log2 fold change. Which class for `RRIRWRPPRLPRPRPRPGTFPRP` ?
Reply | central band

Ask | Each sequence maps to one class by shrunken log2 fold change. Which class for `RRIRFRPPRLPRPRPRPNFHPRP` ?
Reply | lower band
